tested-on: Urea transporter 1 (Mus musculus, UniProt Q8VHL0)
Sequence (Q8VHL0 whole entry): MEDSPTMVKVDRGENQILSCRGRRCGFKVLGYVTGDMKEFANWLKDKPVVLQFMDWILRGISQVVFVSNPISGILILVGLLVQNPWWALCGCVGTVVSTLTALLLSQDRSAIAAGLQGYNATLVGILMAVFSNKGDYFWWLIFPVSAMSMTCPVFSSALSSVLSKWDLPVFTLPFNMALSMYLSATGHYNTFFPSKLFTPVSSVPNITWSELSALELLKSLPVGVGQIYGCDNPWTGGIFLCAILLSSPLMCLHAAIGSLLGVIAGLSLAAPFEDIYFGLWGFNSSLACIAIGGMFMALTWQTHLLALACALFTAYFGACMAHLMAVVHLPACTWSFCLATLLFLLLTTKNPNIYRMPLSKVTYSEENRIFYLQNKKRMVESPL
protocol-description: Inhibition of mouse UT-B expressed in MDCK cells
readout-kind: IC50

> print(dat)
                                 cpd.smiles                                 tested.on  readout.kind   result
1     CC(=O)Nc1ccc(NC(=O)c2ccc(C(F)F)o2)cc1  Urea transporter 1 (Mus musculus, UniProt Q8VHL0)          IC50  > 10 µM
2         CC(=O)Nc1ccc(NC(=O)c2ccc(F)o2)cc1  Urea transporter 1 (Mus musculus, UniProt Q8VHL0)          IC50  > 10 µM
3  O=C(Nc1cccc2ccc(=O)[nH]c12)c1ccc([N+](=O)[O-])o1  Urea transporter 1 (Mus musculus, UniProt Q8VHL0)          IC50  > 10 µM
